Hello, the source for this data is paper PMC7822065, in case you need it.

- assayed system: HDAC4 (Homo sapiens)
- Sequence (P56524 whole entry): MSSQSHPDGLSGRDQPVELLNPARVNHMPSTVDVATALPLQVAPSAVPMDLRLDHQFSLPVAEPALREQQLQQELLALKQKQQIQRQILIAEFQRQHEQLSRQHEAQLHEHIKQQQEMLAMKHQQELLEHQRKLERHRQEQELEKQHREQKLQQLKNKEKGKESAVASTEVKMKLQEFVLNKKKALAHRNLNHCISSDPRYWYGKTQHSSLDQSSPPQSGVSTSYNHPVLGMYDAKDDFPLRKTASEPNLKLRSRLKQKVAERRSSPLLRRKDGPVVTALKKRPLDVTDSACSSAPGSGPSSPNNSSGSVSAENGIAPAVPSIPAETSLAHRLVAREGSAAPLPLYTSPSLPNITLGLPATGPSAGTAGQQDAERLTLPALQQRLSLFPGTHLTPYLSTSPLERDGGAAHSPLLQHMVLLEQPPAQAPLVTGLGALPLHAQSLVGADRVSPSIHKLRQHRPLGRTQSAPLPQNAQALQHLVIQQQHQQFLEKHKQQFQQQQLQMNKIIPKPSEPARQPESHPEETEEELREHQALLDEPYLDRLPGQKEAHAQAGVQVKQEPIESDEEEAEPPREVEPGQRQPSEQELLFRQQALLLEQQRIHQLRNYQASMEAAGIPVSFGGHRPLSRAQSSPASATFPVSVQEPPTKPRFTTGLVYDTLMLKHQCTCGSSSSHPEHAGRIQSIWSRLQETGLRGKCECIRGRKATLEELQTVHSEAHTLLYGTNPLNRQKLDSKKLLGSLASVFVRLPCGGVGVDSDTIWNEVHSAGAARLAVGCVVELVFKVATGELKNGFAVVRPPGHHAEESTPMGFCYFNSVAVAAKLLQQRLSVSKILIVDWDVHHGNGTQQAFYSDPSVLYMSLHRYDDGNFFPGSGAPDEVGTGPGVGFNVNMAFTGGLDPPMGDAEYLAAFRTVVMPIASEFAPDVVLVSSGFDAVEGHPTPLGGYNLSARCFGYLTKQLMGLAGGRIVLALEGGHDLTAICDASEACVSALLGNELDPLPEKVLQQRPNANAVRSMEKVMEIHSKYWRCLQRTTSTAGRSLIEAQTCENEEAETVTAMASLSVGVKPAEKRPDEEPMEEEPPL
- protocol summary: In vitro HDACs inhibitory assay, recombinant HDAC4
pIC50: −log10 of the molar value.
measured parameter: pIC50

[ask] Kindly indicate its recorded pIC50. Item: Cn1cc(CCCC(=O)Nc2ccc(C(=O)NO)cc2)c2ccccc21 [Compound I13]
[reply] < 5.30

---

- assayed system: HDAC2 (Homo sapiens, UniProt Q92769)
- Sequence (Q92769 whole entry): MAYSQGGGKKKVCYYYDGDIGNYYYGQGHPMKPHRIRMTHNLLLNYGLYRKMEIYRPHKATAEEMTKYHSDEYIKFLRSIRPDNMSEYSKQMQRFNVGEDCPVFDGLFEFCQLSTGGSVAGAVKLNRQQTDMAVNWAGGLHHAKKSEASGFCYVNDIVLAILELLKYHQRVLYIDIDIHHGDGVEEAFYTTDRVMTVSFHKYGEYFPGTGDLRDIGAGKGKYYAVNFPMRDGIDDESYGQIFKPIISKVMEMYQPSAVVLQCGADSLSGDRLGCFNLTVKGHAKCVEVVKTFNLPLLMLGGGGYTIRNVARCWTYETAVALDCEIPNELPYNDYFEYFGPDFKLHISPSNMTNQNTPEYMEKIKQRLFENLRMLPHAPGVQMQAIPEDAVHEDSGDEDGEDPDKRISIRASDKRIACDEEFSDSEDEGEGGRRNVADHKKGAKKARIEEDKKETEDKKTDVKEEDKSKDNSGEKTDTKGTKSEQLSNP
- protocol summary: In vitro HDACs inhibitory assay, recombinant HDAC2
measured parameter: pIC50
Keep in mind that pIC50 stands for -log10 of concentration in molar terms.

[ask] Kindly indicate its recorded pIC50. Item: Cn1cc(CCCC(=O)Nc2ccc(C(=O)NO)cc2)c2ccccc21 [Compound I13]
[reply] 7.30
